tested.system: UniProtKB P25090
experimental.protocol: FPR2 cyclic adenosine monophosphate (cAMP) assay
measurement.parameters: CHO cells overexpressing human FPR2; forskolin 5 μM; inhibition of cAMP production; HTRF; read-out: hFPR2 cAMP2 EC50
pEC50: −log10 of the molar value.
Tag: yes (1) if measured pEC50 is not below 8, no (0) if it is.

I'd appreciate it if you could say whether COc1cc(F)c(-c2c(NC(=O)c3ccc(OC(F)(F)F)cn3)c(=O)n(-c3ccccc3)n2C)c(F)c1 has pEC50 at least equal to 8.
no (0)

---

tested.system: UniProtKB P21462
Sequence (P21462 1-350): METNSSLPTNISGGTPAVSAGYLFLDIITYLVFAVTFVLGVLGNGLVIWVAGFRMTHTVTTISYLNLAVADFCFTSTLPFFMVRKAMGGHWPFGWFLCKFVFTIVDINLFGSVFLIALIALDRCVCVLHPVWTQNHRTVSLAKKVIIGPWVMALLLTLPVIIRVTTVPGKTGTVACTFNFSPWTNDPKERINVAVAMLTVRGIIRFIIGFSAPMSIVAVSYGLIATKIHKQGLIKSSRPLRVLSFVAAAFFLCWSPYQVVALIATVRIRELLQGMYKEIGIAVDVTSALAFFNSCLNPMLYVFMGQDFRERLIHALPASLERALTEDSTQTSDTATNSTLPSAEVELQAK
experimental.protocol: FPR1 cyclic adenosine monophosphate (cAMP) assay
measurement.parameters: CHO cells overexpressing human FPR1; forskolin 10 μM; inhibition of cAMP production; HTRF; read-out: hFPR1 cAMP2 EC50
pEC50: −log10 of the molar value.
Below, each of the compounds is paired with its reported pEC50 value.

compound	tested.system	pEC50
COc1cc(F)c(-c2c(NC(=O)c3ccc(OC(F)F)cc3)c(=O)n(-c3nc(NC4(CO)CC4)ccc3C(F)(F)F)n2C)c(F)c1 [Example 231]	UniProtKB P21462	< 5.00

Returns the measured pEC50 for the input compound. Input: COc1cc(F)c(-c2c(NC(=O)c3ccc(OC(F)F)cc3)c(=O)n(-c3nc(OC)ccc3Cl)n2C)c(F)c1 [Example 182]
< 5.00

What measured pEC50 goes with CC(C)Oc1cc(OCCO)nc(-n2c(=O)c(NC(=O)c3ccc(OC(F)F)cc3)c(-c3c(F)cc(Cl)cc3F)n2C)c1 [Example 399] ?
6.26

What value of pEC50 has been recorded for this entry: COCCN1CCN(c2cccc(-n3c(=O)c(NC(=O)c4ccc(OC(F)F)cc4)c(-c4c(F)cc(OC)cc4F)n3C)n2)CC1 [Example 212]
< 5.00

---

tested.system: human FPR1 (Homo sapiens, UniProt P21462)
experimental.protocol: FPR1 cyclic adenosine monophosphate (cAMP) assay
measurement.parameters: CHO cells overexpressing human FPR1; forskolin 10 μM; inhibition of cAMP production; HTRF; read-out: hFPR1 cAMP2 EC50
Procedure: N-formyl peptide receptors (FPRs) are a family of chemo attractant receptors that facilitate leukocyte response during inflammation. FPRs belong to the seven-transmembrane G protein-coupled receptor superfamily and are linked to inhibitory G-proteins (Gi). […] FPR2 and FPR1 Cyclic Adenosine Monophosphate (cAMP) Assays. […] The level of intracellular cAMP was determined using the HTRF HiRange cAMP assay reagent kit (Cisbio) according to manufacturer's instruction. […]
property.label: EC50

Sample answers from the record:
compound	property.label	meas.value
COc1cc(F)c(-c2c(NC(=O)c3ccc(OC(F)F)cc3)c(=O)n(-c3cc(Cl)cc(N4C[C@H]5C[C@@H]4CN5)c3)n2C)c(F)c1	EC50	4.7 µM
COc1cc(F)c(-c2c(NC(=O)c3ccc(OC(F)(F)F)cc3)c(=O)n(-c3ccc(C4CC4)cn3)n2C)c(F)c1	EC50	0.19 µM
COc1cc(F)c(-c2c(NC(=O)c3ccc(OC(F)(F)F)cc3)c(=O)n(-c3cccc(C(F)(F)F)n3)n2C)c(F)c1	EC50	2.2 µM

// returns reported EC50 for input COc1cc(F)c(-c2c(NC(=O)c3ccc(Cl)cc3)c(=O)n(-c3ccccc3)n2C)c(F)c1
> 10 µM

Bench note: what EC50 did COc1cc(F)c(-c2c(NC(=O)c3ccc(OC(F)F)cc3)c(=O)n(-c3cccnc3OC)n2C)c(F)c1 show?
> 10 µM

Need EC50, item COc1cc(F)c(-c2c(NC(=O)c3ccc(OC(F)F)cc3)c(=O)n(-c3cc(C)cc(Cl)c3)n2C)c(F)c1
> 10 µM

May I ask what EC50 has been recorded for COc1cc(F)c(-c2c(NC(=O)c3ccc(OC(F)F)cc3)c(=O)n(-c3nc(NCC4CC4)ccc3C(F)(F)F)n2C)c(F)c1 ?
> 5 µM

I'd like to know its EC50. The compound in question is COc1cc(F)c(-c2c(NC(=O)c3ccc(OC(F)F)cc3)c(=O)n(-c3cccn(C)c3=O)n2C)c(F)c1
> 10 µM

---

Attribute: pEC50
tested.system: human FPR2 (Homo sapiens)
Sequence (P25090 1-351): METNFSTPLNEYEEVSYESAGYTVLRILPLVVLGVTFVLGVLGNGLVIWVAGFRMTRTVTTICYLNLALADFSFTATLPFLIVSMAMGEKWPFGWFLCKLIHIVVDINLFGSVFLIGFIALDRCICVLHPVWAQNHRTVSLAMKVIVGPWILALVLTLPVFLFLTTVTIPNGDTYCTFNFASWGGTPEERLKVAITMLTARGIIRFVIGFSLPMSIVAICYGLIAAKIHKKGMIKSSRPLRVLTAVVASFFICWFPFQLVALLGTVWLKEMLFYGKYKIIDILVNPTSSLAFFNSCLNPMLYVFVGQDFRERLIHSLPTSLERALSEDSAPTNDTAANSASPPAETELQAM
experimental.protocol: FPR2 cyclic adenosine monophosphate (cAMP) assay
measurement.parameters: CHO cells overexpressing human FPR2; forskolin 5 μM; inhibition of cAMP production; HTRF; read-out: hFPR2 cAMP2 EC50
For clarity, pEC50 is expressed as the negative log10 of concentration in mol/L.

compound	property.label	meas.value
COc1cc(F)c(-c2c(NC(=O)c3ccc(OC(F)F)cc3)c(=O)n(-c3nc(C(F)(F)F)ccc3OC[C@H](C)O)n2C)c(F)c1	pEC50	7.80
COc1cc(F)c(-c2c(NC(=O)c3ccc(OC(F)F)cc3)c(=O)n(-c3nc(N4CCN(CC(F)F)CC4)ccc3Cl)n2C)c(F)c1	pEC50	8.70
COc1cc(F)c(-c2c(NC(=O)c3ccc(OC(F)F)cc3)c(=O)n(-c3nc(N[C@@H]4CCOC4)ccc3C(F)(F)F)n2C)c(F)c1	pEC50	8.40
COc1cc(F)c(-c2c(NC(=O)c3ccc(OC(F)F)cc3)c(=O)n(-c3nc(C4CC4)ccc3Br)n2C)c(F)c1	pEC50	8.52
COc1cc(F)c(-c2c(NC(=O)c3ccc(OC(F)F)cc3)c(=O)n(-c3cccc(OC(F)F)n3)n2C)c(F)c1	pEC50	7.92

Quick one: pEC50 for COc1cc(OC(CO)C(F)(F)F)nc(-n2c(=O)c(NC(=O)c3ccc(OC(F)F)cc3)c(-c3c(F)cc(OC)cc3F)n2C)c1 (stereo not shown) [Example 390] ?
8.00

Consider the compound COc1cc(F)c(-c2c(NC(=O)c3ccc(OC(F)F)cc3)c(=O)n(-c3cccc(Cl)n3)n2C)c(F)c1 and give its measured pEC50.
7.85

Can you share its pEC50? I mean this compound: COc1cc(F)c(-c2c(NC(=O)c3ccc(OC(F)F)cc3)c(=O)n(-c3cncc(OC)n3)n2C)c(F)c1
7.70

Param item = COc1cc(F)c(-c2c(NC(=O)c3ccc(OC(F)(F)F)cc3)c(=O)n(-c3cccc(-n4ccc(C)n4)n3)n2C)c(F)c1 ; retrieve measured pEC50.
8.52

Consider the compound COc1cc(F)c(-c2c(NC(=O)c3ccc(OC(F)F)cc3)c(=O)n(-c3nc(NC(C)(C)CO)ccc3C(F)(F)F)n2C)c(F)c1 and give its measured pEC50.
8.52

Fill blank: measured pEC50 of the compound COc1cc(F)c(-c2c(NC(=O)c3ccc(Cl)cc3)c(=O)n(-c3ccc(F)cc3)n2C)c(F)c1 is ____.
7.52

What does the data say about its pEC50? Entry: COc1ccc(-c2c(NC(=O)c3ccc(OC(F)F)cc3)c(=O)n(-c3ncccc3Cl)n2C)cc1F
7.49

Sample COc1cc(C2CCCN(CCO)C2)nc(-n2c(=O)c(NC(=O)c3ccc(OC(F)F)cc3)c(-c3c(F)cc(OC)cc3F)n2C)c1 (stereo not shown) [Example 340] — what was its pEC50?
8.00

---

tested.system: UniProt:P25090
experimental.protocol: FPR2 cyclic adenosine monophosphate (cAMP) assay
measurement.parameters: CHO cells overexpressing human FPR2; forskolin 5 μM; inhibition of cAMP production; HTRF; read-out: hFPR2 cAMP2 EC50
property.label: log10 EC50 (log10 of the value in nM)
The figures below represent log10 of EC50, where EC50 is stated in nM.

Recorded results for 5 compounds are shown here.
compound	tested.system	log10 EC50
COc1cc(F)c(-c2c(NC(=O)c3ccc(OC(F)F)cc3)c(=O)n(-c3cccc(C(F)F)n3)n2C)c(F)c1 [Example 67]	UniProt:P25090	0.95
COc1cc(F)c(-c2c(NC(=O)c3ccc(OC(F)F)cc3)c(=O)n(-c3cc(C4CCNCC4)cc(C)n3)n2C)c(F)c1 [Example 323]	UniProt:P25090	1.15
COc1cc(F)c(-c2c(NC(=O)c3ccc(OC(F)F)cc3)c(=O)n(-c3nc(N4CCN(CC(F)(F)F)CC4)ccc3Cl)n2C)c(F)c1 [Example 239]	UniProt:P25090	0.70
COc1cc(F)c(-c2c(NC(=O)c3ccc(OC(F)F)cc3)c(=O)n(-c3cccc(N4CC(C)(C)C4)n3)n2C)c(F)c1 [Example 218]	UniProt:P25090	1.32
COc1cc(F)c(-c2c(NC(=O)c3ccc(OC(F)F)cc3)c(=O)n(-c3nc(NC4(CO)CC4)ccc3C(F)(F)F)n2C)c(F)c1 [Example 231]	UniProt:P25090	0.70

Look up log10 EC50 with UniProt:P25090 for this compound: COc1cc(F)c(-c2c(NC(=O)c3ccc(OC(F)F)cc3)c(=O)n(-c3nc(N4CCC[C@H]4C(N)=O)ccc3C(F)(F)F)n2C)c(F)c1 [Example 216]
0.78

Return log10 EC50 measured with UniProt:P25090 given this compound: COc1cc(OCC2CCCO2)nc(-n2c(=O)c(NC(=O)c3ccc(OC(F)F)cc3)c(-c3c(F)cc(OC)cc3F)n2C)c1 (stereo not shown) [Example 350]
0.95

Query for UniProt:P25090: what log10 EC50 does the record show for COc1cc(F)c(-c2c(NC(=O)c3ccc(OC(F)F)cc3)c(=O)n(-c3ccc(C#N)cn3)n2C)c(F)c1 [Example 54] ?
1.28

What value of log10 EC50 on UniProt:P25090 does CNC(=O)[C@H](C)Nc1ccc(C(F)(F)F)c(-n2c(=O)c(NC(=O)c3ccc(OC(F)F)cc3)c(-c3c(F)cc(OC)cc3F)n2C)n1 [Example 232] have?
0.70

Give the reported log10 EC50 for COc1cc(F)c(-c2c(NC(=O)c3ccc(OC(F)F)cc3)c(=O)n(-c3nc(NC[C@@H](C)O)ccc3C(F)(F)F)n2C)c(F)c1 [Example 273] (system: UniProt:P25090).
0.48

// fetch UniProt:P25090 log10 EC50 for COc1cc(F)c(-c2c(NC(=O)c3ccc(OC(F)F)cc3)c(=O)n(C(C)C)n2C)c(F)c1 [Example 18]
1.72

Missing value: log10 EC50, UniProt:P25090, entry COc1cc(F)c(-c2c(NC(=O)c3ccc(OC(F)F)cc3)c(=O)n(-c3nc(N[C@H](C)C4CC4)ccc3C(F)(F)F)n2C)c(F)c1 [Example 243] . Fill in?
0.78

Provide the documented log10 EC50 with UniProt:P25090 as the system for COc1cc(F)c(-c2c(NC(=O)c3ccc(OC(F)F)cc3)c(=O)n(-c3cccc(N4CCN(CCO)CC4)n3)n2C)c(F)c1 [Example 107]
0.70
